# EXPERIMENT_DESCRIPTION: in vitro
# Assay type: in vitro ADME
# CONDITION_DETAILS: human, plasma, pH 7.4, % Intact Peptide in Plasma after 6 h
PROPERTY: remaining at 6 h, 100 µM (%)

CCC(CC)(NC(=O)[C@H](Cc1ccc(O)cc1)NC(=O)[C@@H]1CCCN1C(=O)[C@H](CCCNC(=N)N)NC(=O)[C@H](CCCNC(=N)N)NC)C(=O)N[C@@H](CC(C)C)C(=O)O [Compound 39]; 94
CC[C@](C)(NC(=O)[C@H](Cc1ccc(O)cc1)NC(=O)[C@@H]1CCCN1C(=O)[C@H](CCCNC(=N)N)NC(=O)[C@H](CCCNC(=N)N)NC)C(=O)N[C@@H](CC(C)C)C(=O)O [Compound 45]; 92
